Reported BTK_I_binding pIC50 values are given for each entry in this list.
Target: unphosphorylated-BTK kinase domain (UP-BTK), GST-tagged human BTK (389-659aa) (Homo sapiens (Human), UniProt Q06187)
Sequence (Q06187 389-659): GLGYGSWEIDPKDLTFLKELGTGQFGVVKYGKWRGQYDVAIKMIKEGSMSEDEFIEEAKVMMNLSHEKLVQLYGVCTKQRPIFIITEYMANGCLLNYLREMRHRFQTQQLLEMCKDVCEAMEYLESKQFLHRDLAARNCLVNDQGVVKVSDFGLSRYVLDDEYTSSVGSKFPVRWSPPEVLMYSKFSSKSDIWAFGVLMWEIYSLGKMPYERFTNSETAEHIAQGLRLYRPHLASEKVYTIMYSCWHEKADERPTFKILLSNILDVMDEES
Experiment: BTK kinase Lanthascreen binding assay
Details: Lanthascreen tracer competition, 60 minutes incubation; pIC50 = negative log of the IC50 in molar

Answered cases to consult:
Cc1cc(OC(C)C)ncc1N1C(=O)Nc2c(C(=O)N[C@@H]3CCCNC3)sc3nccc1c23 (single isomer, unassigned) [Example 806] | <6
CC(C)(C)OC(=O)N1CCC[C@@H](NC(=O)c2sc3nccc4c3c2NC(=O)N4c2cccc(C3CCOCC3)c2)C1 [Example 739] | <6

Exercise: Need BTK_I_binding pIC50 of CC(=O)N1CCC[C@@H](NC(=O)c2sc3nccc4c3c2NC(=O)N4c2ccc(Oc3cccnn3)cc2)C1 [Example 812] , thanks.
Key: <6

----------
Target: unphosphorylated-BTK kinase domain (UP-BTK), GST-tagged human BTK (389-659aa) (Homo sapiens (Human))
Test: BTK kinase Lanthascreen binding assay
Settings: unphosphorylated-BTK kinase domain, 50 nM Tracer 236, 60 minutes; pIC50 = negative log of the IC50 in molar
REPORTED_PROPERTY: BTK_I_binding pIC50
Please state the value as a number alone, without comment.

Answered cases to consult:
Cc1cc(Oc2ccccc2)ccc1N1C(=O)Nc2c(C(=O)N[C@H]3CCNC(C)C3)sc3nccc1c23 (single isomer, unassigned) [Example 433] | 5.4
Cc1cc(Oc2ccccc2C(N)=O)ccc1N1C(=O)Nc2c(C(=O)N[C@@H]3CCCN(C)C3)sc3nccc1c23 | 5.7
Cc1cc(Oc2ccccc2)ccc1N1C(=O)Nc2c(C(=O)NCCC3CCCN3C)sc3nccc1c23 (stereo not shown) | 6.1

Exercise: Need BTK_I_binding pIC50 of C=CC(=O)N1CCC[C@@H](NC(=O)c2sc3nccc4c3c2NC(=O)N4c2cccnc2C)C1 , thanks.
Key: 5.2

Exercise: Need BTK_I_binding pIC50 of C=CC(=O)N1CCC[C@@H](NC(=O)c2sc3nccc4c3c2NC(=O)N4c2ccc(-c3ccccc3)cc2)C1 , thanks.
Key: 6.3

Exercise: Need BTK_I_binding pIC50 of CCOc1ccc(N2C(=O)Nc3c(C(=O)N[C@@H]4CCCN(C)C4)sc4nccc2c34)c(C)c1 , thanks.
Key: 5.5

Exercise: Need BTK_I_binding pIC50 of Cc1ccc(Oc2ccc(N3C(=O)Nc4c(C(=O)N[C@@H]5CCCN(C)C5)sc5nccc3c45)c(C)c2)cc1 , thanks.
Key: 6.2

Exercise: Need BTK_I_binding pIC50 of Cc1cc(OC(C)C)ccc1N1C(=O)Nc2c(C(=O)N[C@@H]3CCN(C(=O)/C=C/CN(C)C)C3)sc3nccc1c23 , thanks.
Key: 6.7

Exercise: Need BTK_I_binding pIC50 of C=CC(=O)N1CCC[C@@H](NC(=O)c2sc3nccc4c3c2NC(=O)N4c2cccc(-c3ccccc3)c2)C1 , thanks.
Key: 7.9

Exercise: Need BTK_I_binding pIC50 of CN(C)C/C=C/C(=O)N1CC[C@@H](NC(=O)c2sc3nccc4c3c2NC(=O)N4c2ccc(Oc3ccccc3)cc2)C1 , thanks.
Key: 7.6

Exercise: Need BTK_I_binding pIC50 of COC(C)(C)/C=C(\C#N)C(=O)N1CCC[C@@H](NC(=O)c2sc3nccc4c3c2NC(=O)N4c2ccc(Oc3ccccc3)cc2C)C1 (single isomer, unassigned) , thanks.
Key: 7.6

Data origin: patent US10800792B2
